system: LOX IMVI melanoma; assay: NCI tumour cell line growth inhibition, 48 h
measured_quantity: TGI (µM)
Give the quantity in µM, number only.

1. CC1OC(O[C@H]2CC[C@]3(C=O)[C@H]4CC[C@]5(C)[C@H](C6=CC(=O)OC6)CC[C@]5(O)[C@@H]4C=C[C@]3(O)C2)CC(O)C1O (some centres undefined) :: 0.652
2. COC(=O)C1=C(C(=O)OC)C2OC1c1cc3ccccc3cc12 :: 30.5
3. Cc1cc(C)n(CN(Cn2nc(C)cc2C)c2ccccc2)n1 :: 23.8

Now examine the next entry.
Query: // TGI lookup, key: O=[N+]([O-])c1cccc2nc3ccccc3c(NCCCN3CCCCC3)c12
Response: 0.0562

---

Reported TGI by item:
test system: MALME-3M melanoma; test: NCI tumour cell line growth inhibition, 48 h

1) COc1cc(/C=C\c2ccc(OC(C)=O)cc2)cc(OC)c1OC :: > 100 µM

Query: Requested read-out TGI, target or system MALME-3M melanoma, entry Cn1c(-c2ccc(N=NNc3ccc(-c4n[nH]c(=S)n4C)cc3)cc2)n[nH]c1=S
Response: > 100 µM

Query: Field: TGI (MALME-3M melanoma). Entry: COc1ccc2c(-c3ccc(O)cc3)c(Oc3ccc(Cl)cc3)c(=O)oc2c1
Response: 13.8 µM

---

Reported TGI values are given for each entry in this list.
tested on: PC-3 prostate; assay: NCI tumour cell line growth inhibition, 48 h

Example molecules with recorded TGI:
1. CCCCCCN(C)Cc1ccc(OCCOc2ccc(CN(C)CCCCCC)cc2)cc1 :: 2.8 µM
2. CC(O[Si](c1ccccc1)(c1ccccc1)C(C)(C)C)[C@H](NC(=O)OC(C)(C)C)C(=O)O (stereo partly specified) :: 56.8 µM
3. Oc1cc(CN2COc3ccccc32)c(O)cc1CNC1CCCCC1 :: 42 µM
4. C=C1C(=O)OC2CC3(C)CCCC(C)C3=CC12 (stereo unspecified) :: 39.2 µM
5. Oc1ccc(-c2cn3cc(C(F)(F)F)ccc3n2)cc1 :: > 100 µM

Query: // lookup TGI | system=PC-3 prostate | key= Cc1cn2c(/C=C3/C(=O)Nc4ccc(F)cc43)c(C)nc2s1
Response: > 50 µM

Query: Record lookup: for PC-3 prostate, what TGI belongs to O=C(O)C12C3CCC(O3)C1(C(=O)O)C1CCC2O1 (stereo unspecified) ?
Response: > 100 µM

Query: Form field: TGI recorded for CC(=O)NC(CCCCN(Cc1ccccc1)C(=O)N(CCCl)N=O)C(=O)NCc1ccccc1 (stereo unspecified) with PC-3 prostate (enter value)
Response: > 100 µM

Query: Param readout= TGI; system= PC-3 prostate; entry= COC(=O)[C@@H]1Cc2cc(O)c(O)cc2C2(CCN(C)CC2)O1 ; returns value.
Response: > 10 µM

Query: Param readout= TGI; system= PC-3 prostate; entry= CN(C)c1ccc(C2ON=C(c3ccccc3)N2C23CC4CC(CC(C4)C2)C3)cc1 (stereo unspecified) ; returns value.
Response: > 10 µM

Query: # get_value(readout= TGI, system= PC-3 prostate) for CCCN1C(=O)/C(=C/c2ccc(O)cc2)SC1=Nc1ccc(OC)cc1
Response: 31.7 µM

Query: Checklist item: TGI tested on PC-3 prostate, entry Cn1c(-c2ccc(N=NNc3ccc(-c4n[nH]c(=S)n4C)cc3)cc2)n[nH]c1=S , value?
Response: > 100 µM

Query: Identify the measured TGI of Cc1ccc(C)n1-n1c(-c2ccccc2)n[nH]c1=O for PC-3 prostate.
Response: > 100 µM

Query: Requested read-out TGI, target or system PC-3 prostate, entry NNC(=S)Nc1cccc(Cl)c1
Response: > 100 µM

Query: Record lookup: for PC-3 prostate, what TGI belongs to CN(O)C(=S)c1ccccc1 ?
Response: > 59.1 µM

Query: Notebook entry, PC-3 prostate assay: TGI of O=C1C(Cl)C(c2cc3cc(Br)ccc3nc2Cl)N1c1c(Cl)cccc1Cl (stereo unspecified) = ?
Response: > 25 µM

Query: Provide value of TGI for this record tested with PC-3 prostate: CC1CC(C)C2=NOS3=C2C1=NO3 (stereo unspecified)
Response: > 100 µM

Query: What is its TGI for PC-3 prostate? Entry: COc1ccc(Nc2nc3ccccc3nc2C(=O)O)cc1OC
Response: > 100 µM

Query: Requested read-out TGI, target or system PC-3 prostate, entry NC(=S)NS(=O)(=O)c1ccc(F)cc1F
Response: > 100 µM

Query: Which TGI is reported with PC-3 prostate for this entry: O=C(NNC(=S)Nc1ccccc1)c1ccccn1 ?
Response: > 100 µM

Query: Observed TGI on PC-3 prostate for COc1ccc(/C=C2\CC(C)CC3C2=NN(c2ccccc2)C3c2ccc(OC)c(OC)c2)cc1OC (stereo unspecified) , please.
Response: > 100 µM

Query: Value wanted: TGI (PC-3 prostate) of entry COc1ccc2c(-c3ccc(O)cc3)c(Oc3ccc(Cl)cc3)c(=O)oc2c1
Response: 24.4 µM

Query: Find the measured TGI: item CC(CCCC1SCC2NC(=O)NC21)C(=O)O (stereo unspecified) , target or system PC-3 prostate.
Response: > 100 µM

Query: // fetch PC-3 prostate TGI for O=C(O)c1ccc(Nc2nc3cc(C(F)(F)F)ccc3nc2-c2ccccc2)cc1
Response: 40.6 µM

Query: // map O=C(Cn1c(C(=O)c2ccccc2)nc2ccccc21)c1ccc(F)cc1 to recorded TGI (system: PC-3 prostate)
Response: > 100 µM

Query: Item O=[N+]([O-])c1nccn1CCCNCCCn1ccnc1[N+](=O)[O-] with PC-3 prostate - TGI?
Response: > 100 µM

Query: Which measured TGI belongs to C[N+](C)([O-])Cc1cc(-c2ccccc2)ccc1O , tested on PC-3 prostate?
Response: > 100 µM

Query: Hi! What's the reported TGI for O=S(=O)(Nc1ccc2ccccc2c1)c1ccc(-c2cnc(C3CC3)o2)cc1 on PC-3 prostate?
Response: 19.1 µM

Query: Short answer please: TGI, PC-3 prostate, entry CC[C@@H](/C=C\CCC1(C[C@@H](N)CCC=C(C)C)OCCO1)O[Si](C(C)C)(C(C)C)C(C)C
Response: 29.6 µM

Query: Value wanted: TGI (PC-3 prostate) of entry COc1cc(-c2ccc(NC(=O)NC3CC3)c(OC)c2)ccc1NC(=O)NC1CC1
Response: > 100 µM

Query: TGI of CC1(C)CN=C(Nc2ccc(F)c(F)c2)S1 on PC-3 prostate?
Response: > 100 µM

---

system: NCI-H226 lung; assay: NCI tumour cell line growth inhibition, 48 h
Where a SMILES comes first, the peptide text is derived from it. [ ]: non-standard residue; d: D form. 2Nal = N[CH](Cc1ccc2ccccc2c1)C(=O)O
measured_quantity: TGI

Query: Reported TGI for CN(C)c1ccc(C(=NN)c2ccc(N(C)C)cc2)cc1 : what is it?
Response: > 62.4 µM

Query: I am curious: what TGI value has been reported for Oc1ccc(-c2cn3cc(C(F)(F)F)ccc3n2)cc1 ?
Response: > 100 µM

Query: What does the data say about its TGI? Entry: CC(C)C(NC(=O)C(CCCCN)NC(=O)C(Cc1c[nH]c2ccccc12)NC(=O)C(Cc1ccc(O)cc1)NC(=O)C(CS)NC(=O)C(N)Cc1ccc2ccccc2c1)C(=O)NC(CS)C(=O)NC(C(N)=O)C(C)O (stereo not drawn) (H-[2Nal]CYWKVCT-NH2; configuration not given here)
Response: > 12.5 µM

---

test system: HCC-2998 colon; test: NCI tumour cell line growth inhibition, 48 h; in the data active = GI50 below about 0.43 µM; inactive = the rest
Permitted responses: active, inactive

Study these solved cases before continuing.
1. COc1ccc2c(c1)C(=O)c1c-2n(CCCN)c(=O)c2cc(OC)c(OC)cc12 :: active
2. CC(C)(C)NC/C(=C\c1ccccc1)C(=O)c1ccccc1 :: inactive

Query: Could you please tell me the result logged for CSc1ccc(C2=NN(C(C)=O)C(c3ccc(F)cc3)C2)cc1 (configuration not stated) in this assay?
Response: inactive

Query: For this compound, state the assay outcome: CCOC(=O)c1csc(NC(=O)COc2cccc(/C=C3\CSc4ccccc4C3=O)c2)n1
Response: active

Query: How did this test come out for C=C1CCC2C3(C)COC(c4ccc(Cl)cc4)OC3CCC2(C)C1/C=C/C1=CCOC1=O (configuration not stated) ?
Response: inactive

Query: What is the recorded call for this compound in the test? COc1ccc(/C=C2\CC(C)CC3C2=NN(c2ccccc2)C3c2ccc(OC)c(OC)c2)cc1OC (configuration not stated)
Response: inactive

Query: Can you look up the reported call for CCc1nc2cc(/C=C/C(=O)NO)ccc2c(=O)n1CCc1ccc(F)cc1 for me?
Response: inactive

---

tested on: SF-268 CNS; test: NCI tumour cell line growth inhibition, 48 h
Items are presented alongside their recorded TGI.
Give a bare numeral; the unit µM is implied.

Some entries whose results are on file:
1. Cc1c2c(ccc3ccccc32)c[n+]2ccccc12 :: 11.3
2. O=C1C(Cl)=C(N2CCN(c3ccccn3)CC2)C(=O)c2ncccc21 :: 8.17
3. Cn1nc(-c2ccccc2)c(C(=O)/C=C/c2ccc(F)cc2)c(N2CCOCC2)c1=O :: 38.2

We now examine a further molecule.
Query: Which measured TGI belongs to COc1cc(/C=C\c2cc(/C=C\c3ccc(O)c(OC)c3)n(C(=O)CNc3ccc(Cl)cc3)n2)ccc1O , tested on SF-268 CNS?
Response: 14.9
